Test Target: MMP13 (Homo sapiens, UniProt P45452)
Test Protocol: fluorogenic peptide assay for sequence optimization variants and NNK libraries (species not stated)
Type: biochemical
Condition Set: C0101517A01 2nd round sequence optimization variants
Endpoint Label: pIC50
pIC50 here: minus log base 10 of the concentration, concentration in moles per litre.

Record excerpt, results attached:
What value of pIC50 has been reported for the following molecule? C010100649: C0101517A01 sequence optimization variant, mutations N100bS, N101Q (protein) VHH: DVQLVESGGGLVQPGGSLRLSCAASGRTFSSYAMGWFRQAPGKEREFVAAISWSGGSTYYADSVKGRFTISRDNSKNTVYLQMNSLRPEDTAVYYCTAALAVYGPSRYRYGPVGEYQYWGQGTLVTVSS
8.70

What value of pIC50 has been reported for the following molecule? C010100647: C0101517A01 sequence optimization variant, mutations N100bQ, N101V (protein) VHH: DVQLVESGGGLVQPGGSLRLSCAASGRTFSSYAMGWFRQAPGKEREFVAAISWSGGSTYYADSVKGRFTISRDNSKNTVYLQMNSLRPEDTAVYYCTAALAVYGPQRYRYGPVGEYVYWGQGTLVTVSS
8.68

What value of pIC50 has been reported for the following molecule? C010100648: C0101517A01 sequence optimization variant, mutations N100bQ, N101Q (protein) VHH: DVQLVESGGGLVQPGGSLRLSCAASGRTFSSYAMGWFRQAPGKEREFVAAISWSGGSTYYADSVKGRFTISRDNSKNTVYLQMNSLRPEDTAVYYCTAALAVYGPQRYRYGPVGEYQYWGQGTLVTVSS
8.55

Then there is this molecule:
What value of pIC50 has been reported for the following molecule? C010100650: C0101517A01 sequence optimization variant, mutations N100bS, N101V (protein) VHH: DVQLVESGGGLVQPGGSLRLSCAASGRTFSSYAMGWFRQAPGKEREFVAAISWSGGSTYYADSVKGRFTISRDNSKNTVYLQMNSLRPEDTAVYYCTAALAVYGPSRYRYGPVGEYVYWGQGTLVTVSS
8.68
